# Tested on: ICS
# Assay notes: qHTS profiling for inhibitors of Plasmodium falciparum proliferation (AID 504749); further: nearly all actives have a fitted effect of over 60% in size
# Measurement conditions: P. falciparum in erythrocytes, SYBR Green DNA, 72 h; series mostly up to 28.7 µM
Records with an inconclusive call do not appear. Activity calls are given as the source filed them. The call rests on the fitted dose curve; in most records, active means well fitted inhibition curve with a large enough effect; inconclusive means small, poorly fitted or top-dose-only effect; inactive means flat fitted curve, though single readings scatter.
Outcome (select one): 1 for active, 0 for inactive

Please share the test call associated with CO[C@H]1C[C@@H]2CC[C@@H](C)[C@@](O)(O2)C(=O)C(=O)N2CCCC[C@H]2C(=O)O[C@H]([C@H](C)C[C@@H]2CC[C@@H](O)[C@H](OC)C2)CC(=O)[C@H](C)/C=C(\C)[C@@H](O)[C@@H](OC)C(=O)[C@H](C)C[C@H](C)/C=C/C=C/C=C/1C .
1

Hey, what did the test say about C[C@H]1[C@@H](OC(=O)CCC(=O)O)OC2OC3(C)CC[C@H]4[C@H](C)CC[C@@H]1[C@@]24OO3 (stereo not given in full) ?
1

Outcome logged for O=C1[C@@H]2C[C@@H]3C[C@H]1C[C@@](O)(C3)C2 in this assay:
0

How did this test come out for OCC1OC(O)C(O)C(O)C1O (stereo not given) ?
0

Answer briefly: the call reported for Cc1ccc(S(=O)(=O)NC(=O)NC(C)Cc2ccccc2)cc1 (stereo not given) in this assay.
0

###

# System: P94_40
# Assay notes: qHTS profiling for inhibitors of Plasmodium falciparum proliferation (AID 504749); further: nearly all actives have a fitted effect of over 60% in size
# Measurement conditions: P. falciparum in erythrocytes, SYBR Green DNA, 72 h; series mostly up to 28.7 µM
Inconclusive results are not listed. Active and inactive are the calls of the source. Calls come from the whole dose curve; as a rule, active = well fitted inhibition curve with a large enough effect; inconclusive = small, poorly fitted or top-dose-only effect; inactive = flat fitted curve, though single readings scatter.
Your reply should match one of these outcome classes. 1 (yes) for active, 0 (no) for inactive

Molecule	Qualitative label
CO[C@H]1/C=C/O[C@@]2(C)Oc3c(C)c(O)c4c(O)c(c5c(c4c3C2=O)NC2(CCN(CC(C)C)CC2)N=5)=NC(=O)/C(C)=C\C=C\[C@H](C)[C@H](O)[C@@H](C)[C@@H](O)[C@@H](C)[C@H](OC(C)=O)[C@@H]1C	1 (yes)
CNC1C(O)C(OC2C(N)CC(N)C(OC3OC(CN)=CCC3N)C2O)OCC1(C)O (centres undefined)	0 (no)
COc1cccc(OC)c1C(=O)NC1C(=O)N2C1SC(C)(C)C2C(=O)O (centres undefined)	0 (no)

Moving on to the next molecule.
Can you look up the reported call for O=C1CC[C@H](C(=O)N[C@@H]2C[C@H]2c2ccccc2)N1 for me?
0 (no)

###

# Assayed target: Cytochrome P450 2C9 (Homo sapiens)
# Assay notes: qHTS Assay for Inhibitors and Substrates of Cytochrome P450 2C9 (AID 883); further: nearly all actives have a fitted effect of over 60% in size
# Measurement conditions: recombinant CYP2C9, luciferin-H luminescence, 60 min; series mostly up to 57.1 µM
Inconclusive results are not listed. Calls of active or inactive are those of the source. The call rests on the fitted dose curve; in most records, active means well fitted inhibition curve with a large enough effect; inconclusive means small, poorly fitted or top-dose-only effect; inactive means no such curve, though single readings can be large or run the other way.
Parameter call: string, one of active, inactive

Worked examples, 3 compounds total:
Smiles str	Assayed target	Qualitative label
CC(C)C[C@@H](CC(=O)N[C@H](CC(=O)N[C@@H]1CCCC[C@H]1C(=O)N[C@H](CC(=O)N[C@@H](CCC(=O)O)CC(=O)O)Cc1c[nH]c2ccccc12)C(C)C)NC(=O)[C@@H]1CNCC[C@H]1N	Cytochrome P450 2C9 (Homo sapiens)	inactive
CC(C)[C@@H](CC(=O)N[C@@H]1CCNC[C@H]1C(=O)N[C@H](CC(=O)N[C@@H](CCC(=O)O)CC(=O)O)Cc1ccccc1)NC(=O)C[C@H](CO)NC(=O)[C@@H]1CCCC[C@H]1N	Cytochrome P450 2C9 (Homo sapiens)	inactive
C[C@@H](C(=O)Nc1ccc2ccccc2c1)[C@@H]1C[C@@]1(C)[C@@H](NC(=O)c1cnccn1)c1ccccc1	Cytochrome P450 2C9 (Homo sapiens)	active

Query: recorded result category for CC1=C(\C=C/C(C)=C/C=C\C(C)=C\CO)C(C)(C)CCC1 in this test
inactive

What did the test return for O=c1c(O)c(-c2cccc(O)c2)oc2ccccc12 ?
active

Which outcome did this test record for the compound C[C@@H](C(=O)NCCc1c[nH]c2ccccc12)[C@@H]1C[C@@]1(C)[C@@H](NC(=O)OCc1ccccc1)c1ccccc1 ?
active

Can you look up the reported call for COC(=O)[C@@]1(Cc2ccc(F)cc2)[C@H]2c3cc(C(=O)N(C)C)n(Cc4ccc(Cl)c(C(F)(F)F)c4)c3C[C@H]2CN1C(=O)c1ccccc1 for me?
active

How was O=c1cc(-c2ccccc2O)oc2c1ccc1ccccc12 classified in this test?
inactive

What classification did C[C@@H](C(=O)Nc1ccc2ccccc2c1)[C@H]1C[C@]1(C)[C@H](NP(=O)(c1ccccc1)c1ccccc1)c1ccccc1 end up with in this test?
active

Provenance of the data: PubChem BioAssay (NCATS)
